target: T1, human cMET-Fc fusion protein (extracellular domain of human cMET fused to human Fc) (human, UniProt P08581 25-932); assay: SPR, hMET-Fc
T1 construct: Mature cMET is cleaved into alpha and beta subunits; also called hMET-Fc; hMet-Fc
T1 sequence (P08581 25-932): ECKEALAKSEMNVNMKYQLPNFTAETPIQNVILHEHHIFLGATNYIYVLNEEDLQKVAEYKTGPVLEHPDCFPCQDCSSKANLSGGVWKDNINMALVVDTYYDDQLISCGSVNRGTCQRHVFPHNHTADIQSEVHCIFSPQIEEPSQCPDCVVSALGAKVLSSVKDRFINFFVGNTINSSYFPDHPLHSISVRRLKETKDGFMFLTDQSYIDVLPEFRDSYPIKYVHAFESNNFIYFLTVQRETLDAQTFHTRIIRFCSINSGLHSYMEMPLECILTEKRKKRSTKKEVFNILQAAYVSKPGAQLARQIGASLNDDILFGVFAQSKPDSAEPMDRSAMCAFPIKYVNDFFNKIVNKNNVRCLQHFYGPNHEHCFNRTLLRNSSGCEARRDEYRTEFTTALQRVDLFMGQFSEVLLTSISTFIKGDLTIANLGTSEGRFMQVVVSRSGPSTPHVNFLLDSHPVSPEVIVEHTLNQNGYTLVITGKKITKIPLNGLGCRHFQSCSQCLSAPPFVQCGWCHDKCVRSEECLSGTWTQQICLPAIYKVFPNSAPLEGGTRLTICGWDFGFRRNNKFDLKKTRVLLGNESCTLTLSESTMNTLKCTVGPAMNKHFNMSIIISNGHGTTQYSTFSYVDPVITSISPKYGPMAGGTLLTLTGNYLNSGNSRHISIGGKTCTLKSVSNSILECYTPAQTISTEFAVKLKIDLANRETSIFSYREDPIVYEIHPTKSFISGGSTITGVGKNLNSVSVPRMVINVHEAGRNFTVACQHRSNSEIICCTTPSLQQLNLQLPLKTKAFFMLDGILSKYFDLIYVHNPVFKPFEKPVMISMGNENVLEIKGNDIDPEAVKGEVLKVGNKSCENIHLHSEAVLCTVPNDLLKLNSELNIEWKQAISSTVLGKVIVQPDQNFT
Listed here: items and their measured pKd.
Answer as the number alone; pKd is minus log10 of concentration in mol/L.

BINDER	pKd
G2ckc (humanized P3D12, VH-cdr + VL-cdr) (antibody, V domains shown, Humanized and isotype switched version of P3D12) VH: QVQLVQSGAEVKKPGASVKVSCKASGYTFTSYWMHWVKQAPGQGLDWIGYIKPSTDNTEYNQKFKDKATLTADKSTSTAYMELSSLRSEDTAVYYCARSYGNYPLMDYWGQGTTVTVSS VL: QIVLTQSPATLSLSPGERATLSCSASSSVTSNYLYWYQQKPGSSPRLLIYSTSNLASGVPARFSGSGSGTSYTLTISRLEPEDFASYFCHQWSSYPPTFGSGTKLEIKR	9.05
G2vkf (humanized P3D12, VH-ven + VL-fra) (antibody, V domains shown, Humanized and isotype switched version of P3D12) VH: QVQLVQSGAEVAKPGASVKMSCKASGYTFTSYWMHWVKQAPGQGLDWIGYIKPSTDNTEYNQKFKDKATLTADKSTSTAYMQLSSLRSEDTAVYYCARSYGNYPLMDYWGQGTTVTVSS VL: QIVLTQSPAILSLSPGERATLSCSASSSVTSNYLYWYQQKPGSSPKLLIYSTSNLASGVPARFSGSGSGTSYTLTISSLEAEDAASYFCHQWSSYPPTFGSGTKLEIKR	9.52

Read the next record carefully.
Which pKd is listed for G2akc (humanized P3D12, VH-abb/sdr + VL-cdr) (antibody, V domains shown, Humanized and isotype switched version of P3D12) VH: QVQLVQSGAEVKKPGASVKVSCKASGYTFTSYWMHWVKQAPGQGLDWMGYIKPSTDNTEYAQKFQGRVTLTADKSTSTAYMELSSLRSEDTAVYYCARSYGNYPLMDYWGQGTTVTVSS VL: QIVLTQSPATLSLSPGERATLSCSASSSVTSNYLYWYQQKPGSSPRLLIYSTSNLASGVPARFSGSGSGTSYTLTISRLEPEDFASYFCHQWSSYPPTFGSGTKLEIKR ?
9.15
